Every entry's value here was drawn from the supplement of paper PMC10567573.

B1: FUT8 (parent)
chain: NWRYATGGWETVFRPVSETCTDRS

- Variants of: B1
- METHOD DESCRIPTION: protein stability index of a GFP-peptide fusion (GPS, HEK-293T) (PSI 1-6); higher = more stable;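 further: lentivirally expressed fusions sorted by FACS into six bins by GFP to DsRed ratio, PSI derived from sequencing read proportions per bin multiplied by bin number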
- MEASUREMENT CONDITIONS: c terminus: a fixed tail appended
Classify as follows. Reported protein stability index greater than or equal to 2: Yes. Reported protein stability index below: No.

Known results for variants:
{"SEQUENCE DATA": "NWRTATGGWETVFRPVSETCTDRS [Y4T]", "CLASS LABEL": "Yes"}
{"SEQUENCE DATA": "NWRYATGGWETVFRPVSETCADRS [T21A]", "CLASS LABEL": "No"}
{"SEQUENCE DATA": "NWRYATGGWETVFRPVSETCTMRS [D22M]", "CLASS LABEL": "No"}

Please indicate if the recorded protein stability index for NWRYATGGWETVFRPVSRTCTDRS [E18R] meets or exceeds 2. No

Please indicate if the recorded protein stability index for NWRYATGGWETVFWPVSETCTDRS [R14W] meets or exceeds 2. No

Please indicate if the recorded protein stability index for NWRYATGGWETVFRPVSETCTDRR [S24R] meets or exceeds 2. No

Please indicate if the recorded protein stability index for IWRYATGGWETVFRPVSETCTDRS [N1I] meets or exceeds 2. Yes

Please indicate if the recorded protein stability index for NWRWATGGWETVFRPVSETCTDRS [Y4W] meets or exceeds 2. Yes

Please indicate if the recorded protein stability index for NWRYATGGWENVFRPVSETCTDRS [T11N] meets or exceeds 2. No

Please indicate if the recorded protein stability index for NWRAATGGWETVFRPVSETCTDRS [Y4A] meets or exceeds 2. Yes
